Reported K by item:
Tested on: Salmon testes DNA
Measurement Description: Binding affinity towards salmon testes DNA
Assay type: nucleic-acid assay
Measurement Parameters: Oncorhynchus gorbuscha

Compound: OCC[N+]1=C2c3ccccc3-c3ccccc3N2CC1
Target Under Test: Salmon testes DNA
K / M⁻¹: 20200
//
Compound: COc1ccc2c(c[n+](C)c3c4cc5c(cc4ccc23)OCO5)c1OC [CHELERYTHRINE CHLORIDE]
Target Under Test: Salmon testes DNA
K / M⁻¹: 466000
//
Compound: c1ccc2c(c1)C1=NCCN1c1ccccc1-2
Target Under Test: Salmon testes DNA
K / M⁻¹: 25600
//
Compound: COc1ccc(C[N+]2=C3c4ccccc4-c4ccccc4N3CC2)cc1
Target Under Test: Salmon testes DNA
K / M⁻¹: 28900
//
Compound: CCCCCCCCCCCC[N+]1=C2c3ccccc3-c3ccccc3N2CC1
Target Under Test: Salmon testes DNA
K / M⁻¹: 129000

Measured values drawn from ChEMBL document CHEMBL1145154 for this set.
